- PROTOCOL_TEXT: Agonist activity at lasB in Escherichia coli harboring lasB-gfp gene by green fluorescence protein reporter assay
For each record, check the reported EC50: if it is below 40 µM write label 1, else write label 0.

| GIVEN_SMILES | CLASS |
| --- | --- |
| O=Cc1cccc(-n2cc(CCC(=O)N[C@H]3CCOC3=O)nn2)c1 | label 0 |
| CCCCc1cn(CC(=O)N[C@H]2CCOC2=O)nn1 | label 0 |
| O=C(Cn1cc(C2CCCCC2)nn1)N[C@H]1CCOC1=O | label 0 |

Next, consider the following compound.
Just wondering, is EC50 of Nc1cccc(-n2cc(CCC(=O)N[C@H]3CCOC3=O)nn2)c1 below 40 µM?
label 1
